# assay.info: Quantitative High-Throughput drug screen in 47 multiple myeloma cell lines against the NCATS MIPE library collection: OCIMY5_PLB cell viability assay (AID 1918988); also: nearly all actives have a fitted effect of over 65% in size
# condition: OCI-MY5 myeloma viability, ATP luminescence, 48 h; series mostly up to 45.8 µM
Records with an inconclusive call do not appear. The source made the active and inactive calls. Calls follow the shape of the dose curve; as a rule, active = well fitted cell-killing curve with a large enough effect; inconclusive = small, poorly fitted or top-dose-only effect, or effect the other way; inactive = no such curve, though single readings can be large or run the other way.
Give one outcome, nothing more. List: yes (1) = active, no (0) = inactive

Record lookup: outcome of this test for COc1cccc(OC)c1-c1cc(C(=O)NC2(C(=O)O)C3CC4CC(C3)CC2C4)nn1-c1ccnc2cc(Cl)ccc12 (centres undefined) ?
no (0)

Identify the outcome logged in this assay for the compound shown: CN(C)S(=O)(=O)c1ccc2c(c1)C(=Cc1cc3c([nH]1)CCCC3)C(=O)N2
yes (1)

Fill in: this test's call for Cn1c(=O)c(Oc2ccc(F)cc2F)cc2cnc(NC3CCOCC3)nc21 is ___
yes (1)

Status in this test for COc1cc(CNC(=O)CCCCC=CC(C)C)ccc1O ?
no (0)

Next:
// outcome(item) with item = Cc1cccc(-c2[nH]c(C(C)(C)C)nc2-c2ccc3c(c2)OCO3)n1
yes (1)

Lab log entry: CC(O)=C(C#N)C(=O)Nc1ccc(C(F)(F)F)cc1 — outcome as called in the assay?
yes (1)

Please share the test call associated with CO[C@H]1/C=C\O[C@@]2(C)Oc3c(C)c(O)c4c(O)c(c5c(nc6cc(C)ccn65)c4c3C2=O)NC(=O)C(C)=CC=C[C@H](C)[C@H](O)[C@@H](C)[C@@H](O)[C@@H](C)[C@H](OC(C)=O)[C@H]1C .
yes (1)

What did the test return for COc1ccnc(CS(=O)c2nc3ccc(OC(F)F)cc3[nH]2)c1OC (centres undefined) ?
no (0)

Per the records of this test, what outcome belongs to COc1cc2c(cc1OC)[C@@H]1Cc3ccc(OC)c(OC)c3CN1CC2 ?
yes (1)

====

# assay.info: Quantitative High-Throughput drug screen in 47 multiple myeloma cell lines against the NCATS MIPE library collection: AMO1_DSMZ cell viability assay (AID 1918927; also: nearly all actives have a fitted effect of over 30% in size; also: potency is read from the fitted curve at half-maximal effect)
# condition: AMO1 myeloma cells viability, CellTiter-Glo ATP luminescence, 48 h; series mostly up to 45.8 µM
Inconclusive results are not listed. Calls of active or inactive are those of the source. Calls follow the shape of the dose curve; as a rule, active = well fitted cell-killing curve with a large enough effect; inconclusive = small, poorly fitted or top-dose-only effect, or effect the other way; inactive = no such curve, though single readings can be large or run the other way.
attribute.measured: Potency

The examples below pair each entry with its known result.
Give a short answer stating reported Potency for CC1(C)C(N(O)C(=O)Nc2ccc(Cl)cc2)N(c2ccc(Cl)cc2)C(=O)N1CC(=O)NN=CC=Cc1ccc([N+](=O)[O-])o1 (stereo not given) .
inactive

Input COC(=O)[C@H](c1ccccc1Cl)N1CCc2sccc2C1 , output reported Potency.
26.4 µM (active)

Dear colleague, please send me the reported Potency for NC1(C(=O)N[C@@H](CCO)c2ccc(Cl)cc2)CCN(c2ncnc3[nH]ccc23)CC1 when you can.
1.87 µM (active)

Item O=C1CN2Cc3c(ccc(Cl)c3Cl)N=C2N1 : provide Potency
inactive

---
Please report Potency for the following compound: CCC(=O)NCC[C@@H]1CCc2ccc3c(c21)CCO3
inactive

====

# assay.info: Quantitative High-Throughput drug screen in 47 multiple myeloma cell lines against the NCATS MIPE library collection: MM1R_ATCC cell viability assay (AID 1918981); also: nearly all actives have a fitted effect of over 35% in size
# condition: MM1R multiple myeloma cells, CellTiter-Glo viability, 48 h; series mostly up to 45.8 µM
Inconclusive results are not listed. Calls of active or inactive are those of the source. The call rests on the fitted dose curve; in most records, active means well fitted cell-killing curve with a large enough effect; inconclusive means small, poorly fitted or top-dose-only effect, or effect the other way; inactive means no such curve, though single readings can be large or run the other way.
Would you mind answering with one of these outcomes? Yes (active), No (inactive)

Hello, I am checking results. What call was entered for CCOC(=O)[C@H]1O[C@H]1C(=O)N[C@@H](CC(C)C)C(=O)NCCC(C)C ?
No

Write down the call the test reported for this compound. Item: CCOc1ccccc1N=Nc1c(C)[nH]n(-c2nc(-c3ccccc3)cs2)c1=O
Yes

Continuing:
Kindly provide the recorded test outcome for the following compound: COc1cc2ncnc(Nc3cc(Br)c(O)c(Br)c3)c2cc1OC
Yes

Give the logged outcome of this assay for the following compound: COc1cc([C@H]2Oc3cc([C@H]4Oc5cc(O)cc(O)c5C(=O)[C@H]4O)ccc3O[C@H]2CO)ccc1O
Yes

# lookup: test call for OC[C@H]1O[C@@H](OCCc2ccc(O)cc2)[C@H](O)[C@@H](O)[C@H]1O
No

Query: recorded result category for Cc1cnc(-c2cc(N3CCN(C(=O)CCS(C)(=O)=O)CC3)ncc2Cl)c(C)c1 in this test
Yes

====

# assay.info: Quantitative High-Throughput drug screen in 47 multiple myeloma cell lines against the NCATS MIPE library collection: H1112_PLB cell viability assay (AID 1918967; also: nearly all actives have a fitted effect of over 30% in size)
# condition: H1112 myeloma cells viability, ATP luminescence, 48 h; series mostly up to 45.8 µM
Records with an inconclusive call do not appear. Active and inactive are the calls of the source. The call rests on the fitted dose curve; in most records, active means well fitted cell-killing curve with a large enough effect; inconclusive means small, poorly fitted or top-dose-only effect, or effect the other way; inactive means no such curve, though single readings can be large or run the other way.
Return exactly one item of 1 (yes) (active), 0 (no) (inactive)

Field: example entries. Status: answers known.
Could you kindly confirm the outcome this assay logged for O=C(O)C1=NC(C(=O)O)CC(C=CN2c3cc(O)c(OC4OC(CO)C(O)C(O)C4O)cc3CC2C(=O)O)=C1 (stereo not drawn) ?
0 (no)

Query: recorded result category for O=C(c1ccc(C(=O)N2CCC(N3CCCC3)CC2)c(Nc2ccccc2)c1)N1CCC(N2CCCC2)CC1 in this test
0 (no)

Here is another compound to look at.
Assay result, entry CO[C@H]1O[C@@H]2O[C@@]3(C)CC[C@@H]4[C@@H](C)CC[C@@H]([C@H]1C)[C@@]24OO3 — outcome?
1 (yes)

====

# assay.info: qHTS Screen of the MIPE 4.0 Collection Against Ewings Sarcoma (TC32) (AID 1259256); also: nearly all actives have a fitted effect of over 45% in size; also: potency is read from the fitted curve at half-maximal effect
# condition: TC32 Ewing sarcoma viability, CellTiter-Glo, 48 h; series mostly up to 45.8 µM
Results filed as inconclusive are left out. The source made the active and inactive calls. The call rests on the fitted dose curve; in most records, active means well fitted inhibition curve with a large enough effect; inconclusive means small, poorly fitted or top-dose-only effect; inactive means no such curve, though single readings can be large or run the other way.
attribute.measured: Potency

Guide cases for Potency, answers given:
Write down Potency measured for item O=[N+]([O-])c1ccc(Nc2ccccc2-c2ccccc2)c2nonc12
inactive

Give the measured Potency for CNC(=O)c1cc(Oc2ccc(NC(=O)Nc3ccc(Cl)c(C(F)(F)F)c3)c(F)c2)ccn1
20.9 µM (active)

Tell me Potency reported for CCN1CCC(n2cc(CNc3cc(Cl)c4ncc(C#N)c(Nc5ccc(F)c(Cl)c5)c4c3)nn2)CC1
18.7 µM (active)

Using the record for CC(C)CNc1ccnc(NCc2csc(-c3ccccc3)n2)n1 , state its measured Potency.
14.8 µM (active)

Note down Potency recorded for CCN(CCO)CCCOc1ccc2c(Nc3cc(CC(=O)Nc4cccc(F)c4)[nH]n3)ncnc2c1
0.059 µM (active)

Tell me Potency reported for O=C1Nc2ccc(I)cc2C1=Cc1cc(Br)c(O)c(Br)c1
20.9 µM (active)

New cases:
Kindly indicate its recorded Potency. Item: Cn1cc(-c2ccc3nnc(Sc4ccc5ncccc5c4)n3n2)cn1
inactive

Quick one: give measured Potency for CNC1CCC(N(Cc2cccc(-c3ccncc3)c2)C(=O)c2sc3ccccc3c2Cl)CC1 (centres undefined)
20.9 µM (active)

Name the recorded Potency of the compound listed here: C[C@@H]1C[C@H]2[C@@H]3CCC4=CC(=O)C=C[C@]4(C)[C@@]3(F)[C@@H](O)C[C@]2(C)[C@@]1(O)C(=O)CO
inactive

====

# assay.info: Primary qHTS for inhibitors of nuclear receptor binding SET domain protein 2 (NSD2) in an RCH-ACV wild type WT cells (2C) (AID 1645877); also: nearly all actives have a fitted effect of over 70% in size
# condition: RCH-ACV (leukaemia line) NSD2 WT (2C) viability, CellTiter-Glo, 72 h; series mostly up to 44.9 µM
Inconclusive results are not listed. The source made the active and inactive calls. The call rests on the fitted dose curve; in most records, active means well fitted inhibition curve with a large enough effect; inconclusive means small, poorly fitted or top-dose-only effect; inactive means no such curve, though single readings can be large or run the other way.
# valid calls are TRUE for active, FALSE for inactive; nothing else

In this assay, the call recorded for Cc1cccc2c1CC[C@H](CN1CCC(c3c(Cl)cccc3Cl)CC1)C[C@@H]2O was what?
TRUE

Others:
What call does the record list for N#CC(c1ccc(Cl)cc1)c1c(Cl)cc(-n2ncc(=O)[nH]c2=O)cc1Cl (stereo not drawn) ?
FALSE

Identify the outcome logged in this assay for the molecule shown: CN(C(Cc1ccc(OS(=O)(=O)c2cccc3cnccc23)cc1)C(=O)N1CCN(c2ccccc2)CC1)S(=O)(=O)c1cccc2cnccc12 (stereo not drawn)
TRUE

Hey, what did the test say about COc1ccc(CCN(C)CCCOc2ccc(S(=O)(=O)c3[nH]c4ccccc4c3C(C)C)cc2)cc1OC ?
TRUE

Write down the call the test reported for this molecule. Item: CN1C(=O)C(Cc2c[nH]c3ccccc23)NC1=S (stereo not drawn)
FALSE

Which outcome was entered for the molecule Nc1ncnc2c1ncn2[C@@H]1O[C@H](CO)[C@@H](O)[C@@H]1O in this test?
TRUE

Returns: the outcome recorded for CC(NCCc1ccc(O)cc1)C(O)c1ccc(O)cc1 (stereo not drawn) in this assay.
FALSE

====

# assay.info: High-throughput drug toxicity screening in the BPDCN cell line Gen2.2 (AID 1224824);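 also: cells exposed to compounds for 48 h before reading; 100% = DMSO and 0% = bortezomib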
# condition: Gen2.2 BPDCN cells; at 45.8 µM (top of the series) unless noted
Rule for this label: T means cell viability, % of control (lower = more cytotoxic) is less than 6%; F means cell viability, % of control (lower = more cytotoxic) is at least 6%.

Examples from the recorded data:
Please state whether cell viability, % of control (lower = more cytotoxic) is below 6% for CC1CCN(c2cc(N3CCN(C)CC3)ccc2NC(=O)c2cc(C#N)c[nH]2)CC1
F

Item CO[C@H]1/C=C\O[C@@]2(C)Oc3c(C)c(O)c4c(O)c(c5c(nc6cc(C)ccn65)c4c3C2=O)NC(=O)C(C)=CC=C[C@H](C)[C@H](O)[C@@H](C)[C@@H](O)[C@@H](C)[C@H](OC(C)=O)[C@H]1C : cell viability, % of control (lower = more cytotoxic) beneath 6%, strictly?
T

Hello, I'm reviewing records and need to know if cell viability, % of control (lower = more cytotoxic) of CC1(C)CC(=O)c2c(C(F)(F)F)nn(-c3ccc(C(N)=O)c(NC4CCC(O)CC4)c3)c2C1 (configuration not stated) is below 6%. Could you check?
F

Next:
Here's an entry: CCC(=C(c1ccc(O)cc1)c1ccc(OCCNC)cc1)c1ccccc1 . Is its cell viability, % of control (lower = more cytotoxic) below 6%?
F

is_below(cell viability, % of control (lower = more cytotoxic), 6%) for Clc1ccc(COC(Cn2ccnc2)c2ccc(Cl)cc2Cl)c(Cl)c1 (configuration not stated) ?
F

hey, is cell viability, % of control (lower = more cytotoxic) for CC(NCCc1ccc(O)cc1)C(O)c1ccc(O)cc1 (configuration not stated) lower than 6% or not?
F

Dear colleague, could you confirm whether cell viability, % of control (lower = more cytotoxic) of c1ccc(CNc2nc(N3CCOc4ccccc43)nc3c2CCCC3)cc1 falls below 6%? Thanks.
F

In plain terms, does COc1cc(Nc2nc3ccccc3nc2NS(=O)(=O)c2ccc(NC(=O)c3ccc(C)c(OC)c3)cc2)cc(OC)c1 come in under 6% for cell viability, % of control (lower = more cytotoxic)?
F

Strictly below 6%: is that where cell viability, % of control (lower = more cytotoxic) of Cc1[nH]c(C=C2C(=O)Nc3ccc(S(=O)(=O)N(C)c4cccc(Cl)c4)cc32)c(C)c1C(=O)N1CCN(C)CC1 sits?
T

Just wondering, is cell viability, % of control (lower = more cytotoxic) of Cc1ccc(C(=O)N(CCCN)[C@@H](c2oc3cc(Cl)ccc3c(=O)c2Cc2ccccc2)C(C)C)cc1 below 6%?
F

I'd appreciate it if you could check whether CC1=C(CC(=O)O)c2cc(F)ccc2C1=Cc1ccc(S(C)=O)cc1 (configuration not stated) has cell viability, % of control (lower = more cytotoxic) smaller than 6%.
F

is_below(cell viability, % of control (lower = more cytotoxic), 6%) for CCNC(=O)[C@H]1O[C@@H](n2cnc3c(N)nc(NCCc4ccc(CCC(=O)O)cc4)nc32)[C@H](O)[C@H]1O ?
F

Regarding Cc1cnc(-c2cc(N3CCN(C(=O)CCS(C)(=O)=O)CC3)ncc2Cl)c(C)c1 , kindly confirm whether its cell viability, % of control (lower = more cytotoxic) is beneath 6%.
F
